- Tested on: P388 leukemia ip, CD2F1 mice, survival T/C
- experimental.protocol: NCI In Vivo Anticancer Drug Screen. Data for tumor model P388 Leukemia (intraperitoneal) in CD2F1 (CDF1) mice
- particulars: endpoint: median survival time; dose: 100.0 mg/kg/injection; schedule: Q01DX009 (ip); vehicle: Klucel (hydroxypropylcellulose) (HPC); higher = longer survival
Inconclusive results and toxic doses are left out.
readout: T/C

compound | readout | observed
O=C(O)c1ccccc1SSc1ccccc1C(=O)O | T/C | 102 % of control
CCC1(c2ccccc2)C(=O)N(C)C(=O)N(CCCl)C1=O (stereo unspecified) | T/C | 98 % of control
Cc1ccc2sc(=S)sc2c1 | T/C | 99 % of control
COc1cc([N+](=O)[O-])c2nccc(C)c2c1 | T/C | 101 % of control
N#Cc1cc(Cl)ccc1N=Cc1c(Cl)cccc1Cl | T/C | 105 % of control
COC1/C=C\OC2(C)Oc3c(C)c(O)c4c(O)c(c5sc(N)nc5c4c3C2=O)NC(=O)/C(C)=C\C=C\C(C)C(O)C(C)C(O)C(C)C(OC(C)=O)C1C (stereo unspecified) | T/C | 100 % of control
CSc1cccc(NC(=O)Nc2ccccc2C(N)=O)c1 | T/C | 103 % of control
CC(Oc1ccc(Oc2ccc(Cl)cc2)cc1)C(=O)O (stereo unspecified) | T/C | 90 % of control
Nc1nnc(Cc2ccccc2[N+](=O)[O-])c(=O)[nH]1 | T/C | 115 % of control
Cc1ccc(N=Cc2cccs2)cc1Cl | T/C | 113 % of control
COc1cc2c(cc1Br)C(=O)C(Br)(Br)CCC2Br (stereo unspecified) | T/C | 118 % of control
CC(C)NCC(O)COc1ccccc1C1CCCCC1 (stereo unspecified) | T/C | 98 % of control
Cc1cccc(N=Nc2ccc(N=Nc3c(O)ccc4ccccc34)cc2C)c1 | T/C | 100 % of control
CC(=O)Nc1ccc2c3c(cccc13)CC2 | T/C | 106 % of control
CCSc1nc(N)c(C(=O)N2CCCCC2)s1 | T/C | 98 % of control
COc1cc2c(O)c3c(c(-c4ccc5c(c4)OCO5)c2cc1OC)C(=O)OC3 | T/C | 100 % of control
O=C(Nc1ccccc1Cl)OCC(CCl)(CCl)CCl | T/C | 106 % of control
O=C1C=CC(=C2SCCS2)C(O)=C1 | T/C | 93 % of control
O=C(O)C1CCC(=O)N1Cc1ccccc1 (stereo unspecified) | T/C | 100 % of control
O=C1CC2(CCCC2)C(=O)N1c1ccccc1O | T/C | 100 % of control
NS(=O)(=O)c1cccc(NC(=O)c2ccco2)c1 | T/C | 101 % of control
CCOP(O)(=S)OCC.[Ti] | T/C | 101 % of control
CP1(=S)C=C(NC2CCCCC2)CC1 (stereo unspecified) | T/C | 92 % of control
CC#CC#C/C=C1/C=CC2(CCCCO2)O1 (stereo unspecified) | T/C | 104 % of control
CCCCCCCCC(=O)C(=O)c1ccc(O)c(C)c1O | T/C | 109 % of control
CCOC(=O)C1(C(=O)OCC)CCC1 | T/C | 92 % of control
